# Target under test: E3 ubiquitin-protein ligase XIAP (Homo sapiens) (UniProt P98170)
# Sequence (P98170 whole entry, looked up): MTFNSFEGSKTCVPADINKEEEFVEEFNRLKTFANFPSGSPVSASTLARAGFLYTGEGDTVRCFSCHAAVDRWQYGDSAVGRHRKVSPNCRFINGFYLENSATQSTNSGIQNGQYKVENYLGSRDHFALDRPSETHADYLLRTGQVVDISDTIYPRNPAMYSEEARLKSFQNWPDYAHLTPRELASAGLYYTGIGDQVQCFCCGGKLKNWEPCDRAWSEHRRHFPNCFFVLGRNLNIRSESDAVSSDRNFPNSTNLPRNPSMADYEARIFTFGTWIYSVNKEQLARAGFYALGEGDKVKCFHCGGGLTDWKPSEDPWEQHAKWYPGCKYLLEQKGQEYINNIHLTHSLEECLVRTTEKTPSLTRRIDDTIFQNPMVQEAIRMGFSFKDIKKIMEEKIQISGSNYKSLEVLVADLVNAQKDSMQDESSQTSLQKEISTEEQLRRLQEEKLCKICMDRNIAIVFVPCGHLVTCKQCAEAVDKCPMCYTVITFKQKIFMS
# Measurement description: XIAP binders, primary screen, biophysical, small-molecule microarray, fluorescence 635 nm (AID 1181);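 further: score merges 667 nm emission and signal to noise over triplicate slides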
# Measurement context: small-molecule microarray binding, higher = more signal
Recorded endpoint: composite z-score
Format: numeric value only, no unit, no commentary.

| Compound | composite z-score |
| --- | --- |
| C=CCNC(=O)[C@H]1[C@@H]2C(=O)O[C@@H](c3ccccc3)[C@@H](c3ccccc3)N2[C@@H](c2ccc(OCCO)cc2)[C@]12C(=O)N(C(=O)OCCOC)c1ccc(C#CCC(C(=O)OC)C(=O)OC)cc12 | 0.0899 |
| C=CCNC(=O)[C@H]1[C@@H]2C(=O)O[C@@H](c3ccccc3)[C@@H](c3ccccc3)N2[C@@H](c2ccc(O)cc2)[C@]12C(=O)N(C(=O)OCCOC)c1ccc(C#Cc3ccc(OC)cc3)cc12 | -0.0427 |
| CC(C)(C)OC(=O)CC[C@@]1(C(N)=O)N=C(c2ccc(OCCCO)cc2)O[C@@H]1c1ccccc1CN=[N+]=[N-] | 0.119 |

q: Determine its reported composite z-score: CN(C)C(=O)[C@]1(CCS(=O)(=O)c2ccccc2)N=C(c2ccc(OCCCO)cc2)O[C@@H]1c1ccccc1CN=[N+]=[N-]
a: 0.558

q: Name the recorded composite z-score of the compound listed here: CC(C)N1CC=CC23O[C@@H]4/C=C\CCCOC(=O)C4[C@H]2C(=O)N(C(C)CO)[C@@H]3C1=O (stereo partly specified)
a: -0.102

q: Specify composite z-score for COC(=O)[C@@]1(Cc2ccccc2)[C@H]2c3cc(C(=O)N(C)C)n(Cc4nc5ccccc5[nH]4)c3C[C@H]2CN1C(=O)c1ccccc1 and stop.
a: 0.0747

====

# System: Inhibin beta A chain (activin A)
# Measurement description: INHBA (activin A) binders on microarrays, primary screen, biochemical, small-molecule microarray, 635 nm fluorescence scan (AID 1107);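 further: mouse activin A protein probed at 4.33 µg/mL on printed slides; score merges bound-protein fluorescence near 667 nm with spot signal-to-noise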
# Measurement context: small-molecule microarray binding, higher = more signal
Below: a set of entries, each annotated with reported composite z-score.
Enter the number alone.

| Molecule | composite z-score |
| --- | --- |
| C=C(C(=O)CC[C@@H](OC(=O)c1ccccc1-c1ccccc1C(=O)O)c1ccc(OCCO)cc1)C(C)C | 0.768 |

q: Answer with composite z-score of COC(=O)[C@@]1(Cc2ccc(F)cc2)[C@H]2c3cc(C(=O)N4CCCC4)n(Cc4ccc(C(F)(F)F)nc4)c3C[C@H]2CN1C(=O)c1ccccc1 measured for Inhibin beta A chain (activin A).
a: 0.843

q: Give Inhibin beta A chain (activin A) composite z-score for the following molecule: O=C1c2ccccc2[C@](Cc2ccccc2I)(C(=O)NCCN2CCOCC2)[C@H](c2ccc(CO)cc2)N1Cc1ccccc1C(F)(F)F
a: 0.734

q: Please look at COCCOC(=O)N1C(=O)[C@@]2(c3cc(C#CCC(C(=O)OC)C(=O)OC)ccc31)[C@H](c1ccc(O)cc1)N1[C@H](c3ccccc3)[C@H](c3ccccc3)OC(=O)[C@H]1[C@@H]2C(=O)N1CCc2cc(OC)c(OC)cc2C1 and tell me its recorded composite z-score on Inhibin beta A chain (activin A).
a: 0.0348

q: Name the recorded composite z-score of COCCOC(=O)N1C(=O)[C@@]2(c3ccccc31)[C@H](C(=O)Nc1nc3ccccc3s1)[C@H]1C(=O)O[C@H](c3ccccc3)[C@H](c3ccccc3)N1[C@@H]2c1ccccc1OCCO , assay system Inhibin beta A chain (activin A).
a: 0.769

q: Report composite z-score from Inhibin beta A chain (activin A) testing of C=CCNC(=O)[C@@H]1[C@H]2C(=O)O[C@H](c3ccccc3)[C@H](c3ccccc3)N2[C@H](c2ccc(O)cc2)[C@@]12C(=O)Nc1ccc(C#CC3=CCCCC3)cc12
a: 0.406
